- testedTarget: rat TRPA1 (Rattus norvegicus)
- Sequence (Q6RI86 whole entry): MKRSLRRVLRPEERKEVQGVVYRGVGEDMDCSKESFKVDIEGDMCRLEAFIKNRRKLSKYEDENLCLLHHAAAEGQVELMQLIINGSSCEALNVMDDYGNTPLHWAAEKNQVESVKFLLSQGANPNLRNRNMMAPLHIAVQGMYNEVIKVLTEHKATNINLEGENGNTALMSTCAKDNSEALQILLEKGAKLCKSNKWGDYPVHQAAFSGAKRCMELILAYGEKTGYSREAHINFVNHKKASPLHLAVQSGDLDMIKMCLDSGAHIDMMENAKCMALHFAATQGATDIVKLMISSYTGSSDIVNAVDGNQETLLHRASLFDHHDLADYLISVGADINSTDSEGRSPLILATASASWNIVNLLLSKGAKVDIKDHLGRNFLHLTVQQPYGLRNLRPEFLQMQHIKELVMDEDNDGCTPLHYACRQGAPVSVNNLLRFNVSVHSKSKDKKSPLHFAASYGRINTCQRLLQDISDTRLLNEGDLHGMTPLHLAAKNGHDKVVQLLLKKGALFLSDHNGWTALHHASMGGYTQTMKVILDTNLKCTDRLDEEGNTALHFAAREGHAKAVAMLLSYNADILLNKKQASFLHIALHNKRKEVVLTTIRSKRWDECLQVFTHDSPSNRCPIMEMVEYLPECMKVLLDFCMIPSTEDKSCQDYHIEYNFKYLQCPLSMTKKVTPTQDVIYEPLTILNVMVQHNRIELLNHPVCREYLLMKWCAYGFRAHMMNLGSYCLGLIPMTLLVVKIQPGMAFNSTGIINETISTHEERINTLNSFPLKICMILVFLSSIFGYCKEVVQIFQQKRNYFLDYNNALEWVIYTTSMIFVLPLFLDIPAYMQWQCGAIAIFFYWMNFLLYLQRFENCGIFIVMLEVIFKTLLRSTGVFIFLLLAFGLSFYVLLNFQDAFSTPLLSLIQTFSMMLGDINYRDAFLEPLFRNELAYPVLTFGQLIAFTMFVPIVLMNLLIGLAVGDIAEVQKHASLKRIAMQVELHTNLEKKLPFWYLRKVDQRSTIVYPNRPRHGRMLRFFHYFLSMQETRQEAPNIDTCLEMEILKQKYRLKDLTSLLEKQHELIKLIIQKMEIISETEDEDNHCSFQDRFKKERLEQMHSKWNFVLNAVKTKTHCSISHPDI
- testSummary: 45Calcium uptake assay: inhibition of AITC induced cellular uptake of radioactive calcium, rat TRPA1 expressing CHO cells
- setupConditions: class symbols, AITC 10 μM
assayMetric: IC50

Known results for compounds:
1. Cn1c(=O)c2c(CC(=O)Nc3nc(-c4cc(F)c(OCC(F)(F)F)c(F)c4)cs3)coc2n(C)c1=O :: 50 to 100 nM
2. Cc1oc2c(c1CC(=O)Nc1nc(-c3ccc(F)c(C(F)(F)F)c3)cs1)c(=O)n(C)c(=O)n2C :: < 50 nM
3. Cc1oc2c(c1CC(=O)Nc1nc(-c3cc(Cl)c(OC(F)F)c(Cl)c3)cs1)c(=O)n(C)c(=O)n2C :: < 50 nM

GET /value?item= "Cn1c(=O)c2c(CC(=O)Nc3nc(-c4ccc(C(F)(F)F)c(F)c4)cs3)coc2n(C)c1=O" &field=IC50 returns < 50 nM

GET /value?item= "Cc1oc2c(c1CC(=O)Nc1nc(-c3ccc(F)c(OC(F)(F)F)c3)cs1)c(=O)n(C)c(=O)n2C" &field=IC50 returns < 50 nM

GET /value?item= "Cn1c(=O)c2c(CC(=O)Nc3nc(-c4cc(F)c(OCC(C)(C)C)c(Cl)c4)cs3)coc2n(C)c1=O" &field=IC50 returns < 50 nM
